- testedTarget: Bcl-2-like protein 10 (Homo sapiens)
- testMethodNotes: TR3 peptide-Bcl-B binding displacers, biochemical primary FP assay, phenotype converters (AID 1240);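 also: 0% = Bcl-B with tracer peptide and DMSO and 100% = tracer peptide lacking Bcl-B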
- assaySetup: GST-Bcl-B / FITC-TR3 peptide fluorescence polarization; stronger effect = higher value; compound at 3.75 mg/L
The whole screen tested about 50,000 compounds, of which about 800 (1.6%) showed an effect of 50% or more. This excerpt belongs to a sample that is enriched for strong results.

{"columns": ["smilesRecord", "displacement, %"],
 "data": [
  ["CCCC(=O)Nc1ccc2nn(-c3ccc(F)cc3)nc2c1", 0.6],
  ["CC(C)CN1C(=O)c2ccc(C(=O)Nc3c[nH]c(=O)[nH]c3=O)cc2C1=O", 7.8],
  ["CC1=C(C#N)c2nc(N)c(C#N)c(C)c2/C1=C\\c1ccc(C)o1", -4.4],
  ["Cc1ccc(C(=O)N/C(=C/c2ccc(Br)cc2)C(=O)NN)cc1", -31.6],
  ["Cc1ccc(N(CC(=O)O)S(=O)(=O)c2ccc(F)cc2)cc1", 8.4],
  ["COc1cc(C(=O)Oc2ccc(Cl)cc2C)cc(OC)c1OC", 2.1],
  ["O=C(Nc1ccc2nn(-c3ccc(Cl)cc3)nc2c1)c1ccccc1", -1.9],
  ["O=C(c1cccnc1)N(Cc1ccccc1)Cc1ccccc1", 6],
  ["O=C1CCCC2=C1C(c1ccc([N+](=O)[O-])cc1)C1=C(CCCC1=O)N2c1ccc(Cl)cc1", 17.8],
  ["Cc1ccc(NC(=O)CN(c2ccc(C(C)C)cc2)S(=O)(=O)c2ccccc2)c(C)c1", 5.6],
  ["CSc1ccc(S(=O)(=O)NCc2ccccc2C)cc1", 16.3]
]}

---

- testedTarget: Bcl-2-like protein 10 (Homo sapiens) (UniProt Q9HD36)
- Sequence (Q9HD36 whole entry, looked up): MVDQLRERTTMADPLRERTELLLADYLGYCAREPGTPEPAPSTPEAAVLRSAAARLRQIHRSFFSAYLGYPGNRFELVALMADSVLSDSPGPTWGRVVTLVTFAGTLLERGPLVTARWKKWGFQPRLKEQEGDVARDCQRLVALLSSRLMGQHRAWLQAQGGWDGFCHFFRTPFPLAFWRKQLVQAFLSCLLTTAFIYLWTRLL
- testMethodNotes: TR3 peptide-Bcl-B binding displacers, biochemical primary FP assay, phenotype converters (AID 1240);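 also: 0% = Bcl-B with tracer peptide and DMSO and 100% = tracer peptide lacking Bcl-B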
- assaySetup: GST-Bcl-B / FITC-TR3 peptide fluorescence polarization; stronger effect = higher value; compound at 3.75 mg/L
Hit rate of the full screen: of about 50,000 compounds, about 800 (1.6%) showed an effect of 50% or more. The list comes from a sample in which strong results are over-represented; it also holds close analogues and randomly drawn compounds.
Everything with displacement lower than 10% is NO; everything else, including exactly 10%, is YES.

{"columns": ["smilesRecord", "label"],
 "data": [
  ["COc1ccc(/C=C2\\C(=O)NC(=O)N(c3cccc(Br)c3)C2=O)c(OC)c1", "YES"],
  ["COc1ccc(/C=C2\\C(=O)NC(=O)N(c3ccc(F)cc3)C2=O)cc1OC", "NO"],
  ["O=C1C(=Cc2ccc(Sc3ccccc3)o2)C(=O)c2ccccc21", "YES"],
  ["COc1ccc(/C=C2\\C(=O)NC(=O)N(c3cccc(Br)c3)C2=O)cc1OC", "YES"]
]}

---

Entries annotated with measured displacement
- testedTarget: Bcl-2-like protein 10 (Homo sapiens)
- testMethodNotes: TR3 peptide-Bcl-B binding displacers, biochemical primary FP assay, phenotype converters (AID 1240);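 also: 0% = Bcl-B with tracer peptide and DMSO and 100% = tracer peptide lacking Bcl-B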
- assaySetup: GST-Bcl-B / FITC-TR3 peptide fluorescence polarization; stronger effect = higher value; compound at 3.75 mg/L
The whole screen tested about 50,000 compounds, of which about 800 (1.6%) showed an effect of 50% or more. The entries come from a sample that favours strong results as a whole.

{"columns": ["molecule", "testedTarget", "displacement [%]"],
 "data": [
  ["COc1cccc(C2C(C(=O)Nc3ccccc3)=C(C)N=c3s/c(=C\\c4ccncc4)c(=O)n32)c1 (stereo not given)", "Bcl-2-like protein 10 (Homo sapiens)", 9.6],
  ["COc1ccc(C)cc1NC(=O)COc1ccc(Cl)cc1C", "Bcl-2-like protein 10 (Homo sapiens)", -5.2],
  ["O=C1/C(=C/c2ccc(Cl)cc2Cl)SC(=S)N1C1CCS(=O)(=O)C1 (stereo not given)", "Bcl-2-like protein 10 (Homo sapiens)", 7.1],
  ["COc1cccc(C2C(C(=O)Nc3ccccc3)=C(C)N=c3s/c(=C/c4ccccc4OC)c(=O)n32)c1 (stereo not given)", "Bcl-2-like protein 10 (Homo sapiens)", 12.1],
  ["COc1ccc(C2C(C(=O)OC(C)C)=C(C)N=c3s/c(=C\\c4cc(OC)ccc4OC)c(=O)n32)cc1 (stereo not given)", "Bcl-2-like protein 10 (Homo sapiens)", 6.4],
  ["O=C1/C(=C/C=C/c2ccccc2)SC(=S)N1C1CCS(=O)(=O)C1 (stereo not given)", "Bcl-2-like protein 10 (Homo sapiens)", 56.9],
  ["CCOc1cc(/C=C(\\C#N)c2nc3ccccc3s2)ccc1O", "Bcl-2-like protein 10 (Homo sapiens)", 0],
  ["CSc1nc2sc3c(c2c(=O)n1Cc1ccccc1)CCN(C)C3", "Bcl-2-like protein 10 (Homo sapiens)", -6.8],
  ["CC(=O)Nc1ccc(S(=O)(=O)Nc2ccc(C(=O)Nc3nccs3)cc2)cc1", "Bcl-2-like protein 10 (Homo sapiens)", 7.5],
  ["COc1cccc(C2C(C(=O)Nc3ccccc3)=C(C)N=c3s/c(=C\\c4ccc(N(C)C)cc4)c(=O)n32)c1 (stereo not given)", "Bcl-2-like protein 10 (Homo sapiens)", 73.6],
  ["COc1cccc(C2C(C(=O)Nc3ccccc3)=C(C)N=c3s/c(=C\\c4c[nH]c5ccccc45)c(=O)n32)c1 (stereo not given)", "Bcl-2-like protein 10 (Homo sapiens)", 113],
  ["CCOC(=O)C1=C(C)N=c2s/c(=C\\c3cccs3)c(=O)n2C1c1cccc(OC)c1 (stereo not given)", "Bcl-2-like protein 10 (Homo sapiens)", 12.9],
  ["CSc1nc2sc3c(c2c(=O)[nH]1)CCCC3", "Bcl-2-like protein 10 (Homo sapiens)", 6.2],
  ["N#Cc1c(N)sc2c1CCN(Cc1ccccc1)C2", "Bcl-2-like protein 10 (Homo sapiens)", 3.4],
  ["Cc1n[nH]c(C)c1Sc1ccccc1N=Cc1cc(Cl)cc([N+](=O)[O-])c1O", "Bcl-2-like protein 10 (Homo sapiens)", 117],
  ["Cc1n[nH]c(C)c1Sc1ccccc1N=Cc1cc([N+](=O)[O-])ccc1O", "Bcl-2-like protein 10 (Homo sapiens)", 3.6],
  ["COc1ccccc1/C=C1\\SC(=S)N(C2CCS(=O)(=O)C2)C1=O (stereo not given)", "Bcl-2-like protein 10 (Homo sapiens)", 137],
  ["COc1cccc(C2C(C(=O)Nc3ccccc3)=C(C)N=c3s/c(=C\\c4ccc(O)cc4)c(=O)n32)c1 (stereo not given)", "Bcl-2-like protein 10 (Homo sapiens)", -6.7],
  ["COc1cccc(/C=C2\\SC(=S)N(C3CCCCC3)C2=O)c1O", "Bcl-2-like protein 10 (Homo sapiens)", -3.3],
  ["CSc1nc2sc3c(c2c(=O)[nH]1)CCN(Cc1ccccc1)C3", "Bcl-2-like protein 10 (Homo sapiens)", 81]
]}

---

- testedTarget: Bcl-2-like protein 10 (Homo sapiens)
- testMethodNotes: TR3 peptide-Bcl-B binding displacers, biochemical primary FP assay, phenotype converters (AID 1240);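 also: 0% = Bcl-B with tracer peptide and DMSO and 100% = tracer peptide lacking Bcl-B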
- assaySetup: GST-Bcl-B / FITC-TR3 peptide fluorescence polarization; stronger effect = higher value; compound at 3.75 mg/L
The campaign covered roughly 50,000 compounds. About 800 (1.6%) showed an effect of 50% or more. The list comes from a sample in which strong results are over-represented; it also holds close analogues and randomly drawn compounds.

{"columns": ["compound", "u", "displacement"],
 "data": [
  ["Cc1cc(Br)ccc1NC(=O)c1ccc(C)c([N+](=O)[O-])c1", "%", 8.6],
  ["O=C1NC(=S)NC(=O)C1=Cc1ccccc1OS(=O)(=O)c1ccc([N+](=O)[O-])cc1", "%", -7.8],
  ["CN1CCN(C2=C(Cl)C(=O)N(c3ccc(Br)cc3)C2=O)CC1", "%", 15.9],
  ["O=C(Nc1ccc(I)cc1)/C(=C\\c1cccc([N+](=O)[O-])c1)NC(=O)c1cccs1", "%", -0.6],
  ["Cc1ccc(-c2nc3s/c(=C\\c4cn(-c5ccccc5)nc4-c4ccccc4)c(=O)n3n2)cc1", "%", 8.5],
  ["COc1cc(C(=O)Nc2nnc(CC(=O)NCc3ccccc3)s2)cc(OC)c1OC", "%", -14],
  ["CC(=O)Nc1ccc2oc(-c3ccc4nc(NC(C)=O)sc4c3)nc2c1", "%", -4.1],
  ["COC(=O)c1cc(C(=O)N2CCCC2)cc([N+](=O)[O-])c1", "%", 12.7],
  ["COc1ccc(/C=C/C(=O)NC(C)Cc2ccccc2)cc1OC (stereo not given)", "%", -5.6],
  ["CCN1CCN(CC(O)CN2CCn3c4c(c5cc(C)ccc53)CCCC42)CC1 (stereo not given)", "%", 24.7]
]}

---

Entries annotated with measured displacement
- testedTarget: Bcl-2-like protein 10 (Homo sapiens)
- testMethodNotes: TR3 peptide-Bcl-B binding displacers, biochemical primary FP assay, phenotype converters (AID 1240);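 also: 0% = Bcl-B with tracer peptide and DMSO and 100% = tracer peptide lacking Bcl-B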
- assaySetup: GST-Bcl-B / FITC-TR3 peptide fluorescence polarization; stronger effect = higher value; compound at 3.75 mg/L
Screen size: about 50,000 compounds; about 800 (1.6%) showed an effect of 50% or more. What follows is part of a selection rich in strong results, with near analogues and random picks from the rest.
parameter: displacement (%)

{"columns": ["compound", "testedTarget", "parameter", "measured"],
 "data": [
  ["O=C1N=C(N=Nc2c(O)[nH]c3ccccc23)S/C1=C/c1ccc(Br)cc1", "Bcl-2-like protein 10 (Homo sapiens)", "displacement", 8.9],
  ["Cc1ccc(-c2ccc(OCC(=O)Nc3ccccc3C(N)=O)cc2)cc1", "Bcl-2-like protein 10 (Homo sapiens)", "displacement", 4.4],
  ["CCOc1ccc(Br)cc1/C=C(\\C#N)c1nc2ccc(C)cc2[nH]1", "Bcl-2-like protein 10 (Homo sapiens)", "displacement", 72.9],
  ["N/C(=N\\OC(=O)c1cccc(F)c1)c1ccccc1", "Bcl-2-like protein 10 (Homo sapiens)", "displacement", -7.1],
  ["CSc1ccccc1NC(=O)CSc1nc2ccccc2o1", "Bcl-2-like protein 10 (Homo sapiens)", "displacement", 18.9],
  ["COc1ccc(C(=O)Nn2cc3cc([N+](=O)[O-])ccc3n2)cc1", "Bcl-2-like protein 10 (Homo sapiens)", "displacement", -9.5],
  ["Cc1ccc2nc(/C(C#N)=C\\c3cc(Br)ccc3OC(C)C)[nH]c2c1", "Bcl-2-like protein 10 (Homo sapiens)", "displacement", 13.1],
  ["CCC12C(=O)C(CC)(C(c3ccccc3)=C1c1ccccc1)C1C(=O)N(c3ccccc3[N+](=O)[O-])C(=O)C12 (configuration not stated)", "Bcl-2-like protein 10 (Homo sapiens)", "displacement", 2],
  ["COc1ccc(/C=C/C(=O)O)cc1S(=O)(=O)NCc1ccccc1", "Bcl-2-like protein 10 (Homo sapiens)", "displacement", 7.2],
  ["O=C(Nc1ccc(NC(=O)c2ccc([N+](=O)[O-])cc2Cl)cc1Cl)c1ccco1", "Bcl-2-like protein 10 (Homo sapiens)", "displacement", -2],
  ["O=C1C2ON(c3ccccc3)C(c3ccco3)C2C(=O)N1c1ccc(N2CCOCC2)cc1 (configuration not stated)", "Bcl-2-like protein 10 (Homo sapiens)", "displacement", 2.3],
  ["O=C(O)CCN1C(=O)/C(=C/c2cn(-c3ccccc3)nc2-c2cccs2)SC1=S", "Bcl-2-like protein 10 (Homo sapiens)", "displacement", -14.1],
  ["CCCOc1ccc(Cl)cc1/C=C(/C#N)c1nc2ccc(C)cc2[nH]1", "Bcl-2-like protein 10 (Homo sapiens)", "displacement", 15.5],
  ["CCc1ccc(NC(=O)C(=O)NCCCO)cc1", "Bcl-2-like protein 10 (Homo sapiens)", "displacement", 5],
  ["Cc1ccc2nc(/C(C#N)=C/c3cc(Br)ccc3OCc3ccccc3)[nH]c2c1", "Bcl-2-like protein 10 (Homo sapiens)", "displacement", -2.3],
  ["CCc1ccc(/C=C(/C#N)c2nc3ccc(C)cc3[nH]2)cc1", "Bcl-2-like protein 10 (Homo sapiens)", "displacement", 3.2],
  ["CCCOc1c(I)cc(I)cc1/C=C(/C#N)c1nc2ccc(C)cc2[nH]1", "Bcl-2-like protein 10 (Homo sapiens)", "displacement", -4.9],
  ["CC(C)CN1C(=O)/C(=C/c2cn(-c3ccccc3)nc2-c2cccs2)SC1=S", "Bcl-2-like protein 10 (Homo sapiens)", "displacement", 34.6],
  ["COc1cc(/C=C/C(=O)c2ccc(C)cc2)cc(OC)c1OC", "Bcl-2-like protein 10 (Homo sapiens)", "displacement", 1.6],
  ["Cc1ccc(C(=O)N2C(C)CCCC2C)cc1[N+](=O)[O-] (configuration not stated)", "Bcl-2-like protein 10 (Homo sapiens)", "displacement", -4],
  ["O=C1/C(=C/c2cn(-c3ccccc3)nc2-c2cccs2)SC(=S)N1C1CCS(=O)(=O)C1 (configuration not stated)", "Bcl-2-like protein 10 (Homo sapiens)", "displacement", 100],
  ["Cc1ccc(/C=C(/C#N)c2nc3ccc(C)cc3[nH]2)cc1", "Bcl-2-like protein 10 (Homo sapiens)", "displacement", 4.5]
]}
